FYI, the data here is from the nanobody polyreactivity screen of Harvey et al. (2022).

# assay explanation: yeast display, Sf9 membrane polyspecificity reagent, FACS + sequencing; frameworks hold sequencing errors
readout name: polyreactivity (PSR sort gate)

QVQLVQTGGGLVQAGGSLRLSCAASGRIFYRYDMGCYRQAPGKERSLVAAIRYSGGRTYYADSVKGRFTISRDNAKNTVYLQMNSLKPEDNAVYYCADDEFFWSSEEDYWGQVTQVTVSS; low polyreactivity
QVQIVESGGGLVQAGGSHRLSCAASGSTFVYNAMGWYRQAPGIQRELVAAITVIGGRTYYADSVKGRFTISRDNAKNTVYLQMNSLKPEDTSVYYCNGTWAYRGHGYWGQGTEVTVSS; low polyreactivity
QVQLVESGGGLVQAGGSLRLSCAASGRTFRNYAMGWYRQAPGKERELVAAISRSGGITYYADSVKGRFTISRDNSKNTVYLQMNSLKPEDTAVYYCAARHTYQGPGTYPMFYWGQGTQVTVSS; high polyreactivity
QVQLVESGGGLVQAGGSLRLSCAASGLIFNLYAMGWYRQAPGKEREFVATITGIGGSTYYADSVKGRFTISRDNANNTVYLQMTSLKPEDTAVYYCAADAWFLPYNYWGQGTQVTVSS; low polyreactivity
QVQLVESGGGLVQAGGSLRLSCAASGRTFYHYTMGWYRQAPGKERELVARITRRVGSTYYADSVKGRFTISRDNAKNTVYLQMNSLKPEDTAVYYCNDKSGLYRYLLDYWGQGTQVTVSS; high polyreactivity
QVQLVESGGGLVQAGGSLRLSCAASGSTFYYYAMGWYRQAPGKERELVATISSGSSTNYADSVKGRFTISRDNAKNTVYLQMNSLKPEDTAVYYCATDGDPAYPEMEYWGQGTQVTVSS; low polyreactivity
QDQLVESGGGLVQAGGSLRLTCAASGFTFRRNAMGWYRQAPGKERELVAAISSRGGSTYYADSVKGRFTISRDNAKNTVYLQMNSLKPEDTAVYYCAAYYVPWGTLYHLDYWGQGTQVTVSS; high polyreactivity
QVQLVESGGGLVKAGGSLRLSCAASGSIFPDNAMGWYRQAPGKERELVAAISEGSTSTYYADSVKGRFTISRDNAKYTVYLQMNSLKPEDTAVYYCAADYDTGYEYWGQGTQVTVSS; low polyreactivity

Asked: Supply recorded polyreactivity (PSR sort gate) for QVQLVESGGGLVQAGGSLRLSCAASGSIFGRNAMGWYRQAPGKERELVAAIRTRGGSTYYADSVKGRFTNSRDIAKNSVYLQMNSLKPEDTAVYYCAAPGGGKEVDYWGQGTQVTVSS here.
Given back: low polyreactivity

Asked: Supply recorded polyreactivity (PSR sort gate) for QVQLVESGGGLVQAGGSLRLSCAASGFTFRKNAMGWYRQAPGKERELVAAISSGTSTYYADSVKGRFTISRDNAKNTVYLQMNSLKPEDTAVYYCAAARYRTDDYWGLGTQVTVSS here.
Given back: high polyreactivity

Asked: Supply recorded polyreactivity (PSR sort gate) for QVQLVESGGCLVQAGGRLRLSCAASGRIFHDNGMGWYRQAPGKERELVAAISRGGSTYYADSVKGRFTISRDNAKNTVYLQMNSRKPEDTAVYYCNVDSFRYRHTGYCDTRYGYWGQGTQVTVSS here.
Given back: high polyreactivity

Asked: Supply recorded polyreactivity (PSR sort gate) for QVQLVESGGGLVQAGGSLRLSCAASGSIFYFNAMGWYRQAPGKERELVAAITYSGGSTYYADSVKGRFTISRDNAKNTVYLQMNSLKPEDTAVYYCAAERRTFPLRNFDYWGQGTQVTVLS here.
Given back: low polyreactivity
